Recorded values, source patent US12594292B2.

System: SARS-CoV-2 isolate USA-WA1/2020
EXPERIMENT DESCRIPTION: SARS-CoV-2 infection in Huh7.5 cells, qRT-PCR (Example 7)
Type: cell-based
MEASUREMENT SETUP: Huh7.5 cells, MOI 0.01, 48 hours, qRT-PCR (Example 7); listed as HDP-P-RVn
MEASURED PARAMETER: pEC50
Give only the number. pEC50 is defined as minus log10 of concentration in molar units.

The recorded pEC50 for `CCCCCCCCCCCCCCCCOCCCOP(=O)(O)OC[C@H]1O[C@@](C#N)(c2ccc3c(N)ncnn23)[C@H](O)[C@@H]1O` is 6.72
